Cited source for all entries: paper PMC10641069

MEASURED_ON: T1, FBF-2 RBD+CT L610A (Caenorhabditis elegans, UniProt Q09312 164-632, L610A)
T1 sequence: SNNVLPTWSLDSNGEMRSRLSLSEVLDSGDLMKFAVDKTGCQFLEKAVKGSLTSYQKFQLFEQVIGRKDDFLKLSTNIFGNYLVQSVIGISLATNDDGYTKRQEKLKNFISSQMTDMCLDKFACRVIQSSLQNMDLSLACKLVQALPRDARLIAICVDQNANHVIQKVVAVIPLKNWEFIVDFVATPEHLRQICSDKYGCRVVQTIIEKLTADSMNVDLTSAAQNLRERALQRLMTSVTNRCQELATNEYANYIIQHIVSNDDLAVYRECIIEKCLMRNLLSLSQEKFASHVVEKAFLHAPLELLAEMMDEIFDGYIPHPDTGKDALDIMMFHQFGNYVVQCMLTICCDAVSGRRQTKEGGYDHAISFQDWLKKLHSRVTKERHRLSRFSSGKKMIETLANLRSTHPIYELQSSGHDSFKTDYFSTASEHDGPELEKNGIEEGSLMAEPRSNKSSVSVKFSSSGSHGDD
ASSAY_INFO: SPR; kon 15.5e4 M-1 s-1, koff 1.36e-3 s-1; EMSA: FBF-2 in 20 mM HEPES pH 7.4, 150 mM NaCl, 0.5 mM TCEP mixed 1:1 with 5 nM final RNA in 10 mM HEPES pH 7.4, 0.01% Tween 20, 0.1 mg/ml BSA, 0.1 mg/ml yeast
PARTICULARS: protein: recombinant; tags: none (His6-SUMO removed with Ulp1); label: 3'-biotin
READOUT_LABEL: Kd (nM)
// note: answer is a bare numeric in nM

Inquiry: # input binder: AUCAUGUGCCAUACA (ssRNA) [gld-1 FBEa RNA (SPR)] ; wanted: its Kd
Reply text: 9.4
